Test: Clearance in Sprague-Dawley rat at 2 mg/kg, iv measured upto 12 hrs by UPLC-MS/ESI analysis
Assay type: ADME, organism-based
Conditions: in vivo
MEASURE: clearance

| SMILES REPR | OBSERVED MEASUREMENT |
| --- | --- |
| COc1cc(-c2nccc3[nH]c(-c4cccc5c4ccn5C)nc23)cc(OC)c1OC | 11.2 mL/min/kg |

* * *

Test: Clearance in Sprague-Dawley rat at 20 mg/kg, po measured upto 12 hrs by UPLC-MS/ESI analysis
Type: ADME, organism-based
Conditions: in vivo
MEASURE: CL/F (mL/min/kg)

| SMILES REPR | OBSERVED MEASUREMENT |
| --- | --- |
| COc1cc(-c2nccc3[nH]c(-c4cccc5c4ccn5C)nc23)cc(OC)c1OC | 107 |

* * *

Experiment: Acute toxicity in C57 mouse assessed as survival rate at 80 mg/kg, po administered daily for 14 days relative to control
Format: organism-based
Details: in vivo, time 14 day, read-out: Activity
MEASURE: survival at 336 h (%)

| SMILES REPR | OBSERVED MEASUREMENT |
| --- | --- |
| COc1cc(-c2nccc3[nH]c(-c4cccc5c4ccn5C)nc23)cc(OC)c1OC | 20 |

* * *

System: HeLa
Experiment: Antiproliferative activity against human HeLa cells assessed as inhibition of cell proliferation incubated for 48 hrs by MTT assay
Format: functional, cell-based
List of IC50 values.
MEASURE: IC50 (nM)

| SMILES REPR | TARGET OF ASSAY | OBSERVED MEASUREMENT |
| --- | --- | --- |
| COc1cc(-c2n[nH]c3ccc(-c4ccccc4)nc23)cc(OC)c1OC | HeLa | 742 |
| COc1cc(-c2nccc3[nH]c(-c4ccc5ccn(C)c5c4)nc23)cc(OC)c1OC | HeLa | 45 |
| COc1cc(-c2n[nH]c3ccc(-c4cccc5c4ccn5C)nc23)cc(OC)c1OC | HeLa | 40 |
| COc1cc(-c2n[nH]c3ccc(-c4ccc5c(ccn5C)c4)nc23)cc(OC)c1OC | HeLa | 48 |
| CCn1ccc2ccc(-c3nc4c(-c5cc(OC)c(OC)c(OC)c5)nccc4[nH]3)cc21 | HeLa | 818 |
| COc1ccc(-c2ccc3[nH]nc(-c4cc(OC)c(OC)c(OC)c4)c3n2)cc1 | HeLa | 188 |
| COc1cc(-c2nccc3[nH]c(-c4cccc5c4ccn5C)nc23)cc(OC)c1OC | HeLa | 9 |
| COc1cc(-c2n[nH]c3ccc(-c4ccc5c(ccn5C)c4)cc23)cc(OC)c1OC | HeLa | 173 |
| CCn1ccc2cc(-c3nc4c(-c5cc(OC)c(OC)c(OC)c5)nccc4[nH]3)ccc21 | HeLa | 195 |

* * *

Tested on: B16-F10
Test: Antiproliferative activity against mouse B16-F10 cells assessed as inhibition of cell proliferation incubated for 48 hrs by MTT assay
Type: functional, cell-based
Conditions: B16-F10, 48 h
MEASURE: log10(IC50) (log10 of the value in nM)

| SMILES REPR | log10(IC50) |
| --- | --- |
| COc1cc(-c2nccc3[nH]c(-c4ccc5c(ccn5C)c4)nc23)cc(OC)c1OC | 1.78 |
| COc1cc(-c2n[nH]c3ccc(-c4ccc(C)cc4)nc23)cc(OC)c1OC | 1.51 |
| Cn1ccc2c(-c3nc4c(-c5ccc6c(c5)OCCO6)nccc4[nH]3)cccc21 | 2.14 |
| CCn1ccc2c(-c3nc4c(-c5cc(OC)c(OC)c(OC)c5)nccc4[nH]3)cccc21 | 1.26 |
| COc1cc(-c2n[nH]c3ccc(-c4ccccc4)nc23)cc(OC)c1OC | 2.83 |
| CCn1ccc2cc(-c3nc4c(-c5cc(OC)c(OC)c(OC)c5)nccc4[nH]3)ccc21 | 2.37 |
